Test system: Human colon carcinoma HCT-116 cells
test details: cells
test settings: HCT-116, 72 h, read-out: Cytotoxicity IC50, HCT-116
measured endpoint: pIC50
A value of pIC50 is the negative decimal logarithm of a concentration given in moles per litre.

1. O=C(Nc1ccc(N(CCCl)CCCl)cc1)Nc1cc(CO)cc(Nc2c3ccccc3nc3ccccc23)c1 [BO-1037]    6.66
2. COc1ccc(Nc2c3ccccc3nc3c(C)cccc23)cc1NC(=O)Nc1ccc(N(CCCl)CCCl)cc1 [BO-1154]    7.15
3. Cc1cc(NC(=O)Nc2ccc(N(CCCl)CCCl)cc2)c2ccccc2n1 [BO-1038]    5.85

Let me check: Cc1cc(NC(=O)Nc2ccc(N(CCCl)CCCl)cc2)cc(Nc2c3ccccc3nc3ccccc23)c1 [BO-1079] , system Human colon carcinoma HCT-116 cells, measured pIC50 is 6.10

Let me check: Cc1cc(NNC(=O)Nc2ccc(N(CCCl)CCCl)cc2)c2cc(N(C)C)ccc2n1 [BO-1242] , system Human colon carcinoma HCT-116 cells, measured pIC50 is 6.82

---

Tested on: CCRF-CEM human lymphoblastic leukemia cells
test settings: read-out: Cytotoxicity IC50, CCRF-CEM; Table 1; XTT, 72-hr incubation
measured endpoint: IC50
Provide a numeric answer, followed by its unit.

1) Cc1ccc(Nc2c3ccccc3nc3ccccc23)cc1NC(=O)Nc1ccc(N(CCCl)CCCl)cc1    20 nM

Continue with the next compound.
Let me check: CC(C)COC(=O)Nc1cc(COC(=O)Nc2ccc(N(CCCl)CCCl)cc2)cc(Nc2c3ccccc3nc3ccccc23)c1 , system CCRF-CEM human lymphoblastic leukemia cells, measured IC50 is 190 nM

---

test details: Half-life in intravenous injection vehicle
test settings: intravenous injection vehicle (DMSO/Tween 80/saline)
measured endpoint: half-life

Lab book: half-life of Cc1ccc(Nc2c3ccccc3nc3c(C)cccc23)cc1NC(=O)Nc1ccc(N(CCCl)CCCl)cc1 [BO-1051] noted as ~45 days

---

Test system: Human colon carcinoma HCT-116 cells
test details: cells
test settings: HCT-116, 72 h, read-out: Cytotoxicity IC50, HCT-116
pIC50: −log10 of the molar value.
Please mark YES if the recorded pIC50 is equal to or greater than 6, and NO if it falls below.

Worked cases, answers included:
1) Cc1cccc2c(Nc3cc(CO)cc(NC(=O)Oc4ccc(N(CCCl)CCCl)cc4)c3)c3ccccc3nc12    YES
2) Cc1cc(NNC(=O)Nc2ccc(N(CCCl)CCCl)cc2)c2ccccc2n1    YES
3) COc1ccc2nc(C)cc(NNC(=O)Nc3ccc(N(CCCl)CCCl)cc3)c2c1    YES
4) COc1cc(NC(=O)Oc2ccc(N(CCCl)CCCl)cc2)cc(Nc2c3ccccc3nc3ccccc23)c1    NO

Is the recorded value of pIC50 equal to or greater than 6 for this molecule? Cc1ccc(NC(=O)Nc2ccc(N(CCCl)CCCl)cc2)cc1Nc1c2cccc(C)c2nc2c(C(=O)NCCN(C)C)cccc12
YES

Is the recorded value of pIC50 equal to or greater than 6 for this molecule? O=C(NNc1cc(-c2ccccc2)nc2cc3c(cc12)OCO3)Nc1ccc(N(CCCl)CCCl)cc1
NO

Is the recorded value of pIC50 equal to or greater than 6 for this molecule? Cc1cc(NC(=O)Nc2ccc(N(CCCl)CCCl)cc2)c2cc(N(C)C)ccc2n1
YES

---

Tested on: lung cancer H460
test details: cells
test settings: read-out: Cytotoxicity IC50, H460; Table 2
measured endpoint: IC50 (µM)
Kindly answer with a numeric value in µM, unit omitted.

Lab book: IC50 of N.N.[Cl][Pt][Cl] [Cisplatin, reference compound] noted as 18.4

---

Tested on: CCRF-CEM human lymphoblastic leukemia cells
test details: cells
test settings: 72 h, read-out: Cytotoxicity IC50, CCRF-CEM
pIC50: −log10 of the molar value.
Please mark class 1 if the recorded pIC50 is equal to or greater than 7, and class 0 if it falls below.

1. O=C(NNc1cc(-c2ccccc2)nc2cc3c(cc12)OCO3)Nc1ccc(N(CCCl)CCCl)cc1    class 0
2. O=C(NNc1cc(-c2ccccc2)nc2ccccc12)Nc1ccc(N(CCCl)CCCl)cc1    class 0
3. O=C(Nc1ccc(Nc2cc(-c3ccccc3)nc3ccccc23)cc1)Nc1ccc(N(CCCl)CCCl)cc1    class 0
4. O=C(Nc1ccc(N(CCCl)CCCl)cc1)Nc1cc(CO)cc(Nc2c3ccccc3nc3ccccc23)c1    class 1
5. Cc1cc(NNC(=O)Nc2ccc(N(CCCl)CCCl)cc2)c2cc(N(C)C)ccc2n1    class 1

Is the recorded value of pIC50 equal to or greater than 7 for this molecule? Cc1cc(NC(=O)Nc2ccc(N(CCCl)CCCl)cc2)c2ccccc2n1
class 0

Is the recorded value of pIC50 equal to or greater than 7 for this molecule? COc1ccc(Nc2c3ccccc3nc3c(C)cccc23)cc1NC(=O)Nc1ccc(N(CCCl)CCCl)cc1
class 1

Is the recorded value of pIC50 equal to or greater than 7 for this molecule? COc1ccc2nc(C)cc(NNC(=O)Nc3ccc(N(CCCl)CCCl)cc3)c2c1
class 0

Is the recorded value of pIC50 equal to or greater than 7 for this molecule? Cc1ccc(NC(=O)Nc2ccc(N(CCCl)CCCl)cc2)cc1Nc1c2cccc(C)c2nc2c(C(=O)NCCN(C)C)cccc12
class 1

Is the recorded value of pIC50 equal to or greater than 7 for this molecule? O=C(Nc1ccc(N(CCCl)CCCl)cc1)Nc1c2ccccc2nc2ccccc12
class 0

Is the recorded value of pIC50 equal to or greater than 7 for this molecule? COc1ccc(Nc2c3ccccc3nc3c(C)cccc23)cc1NC(=O)Oc1ccc(N(CCCl)CCCl)cc1
class 1

Is the recorded value of pIC50 equal to or greater than 7 for this molecule? O=C(Nc1ccc(N(CCCl)CCCl)cc1)Nc1cccc(Nc2cc(-c3ccccc3)nc3ccccc23)c1
class 0

Is the recorded value of pIC50 equal to or greater than 7 for this molecule? COc1cc(NC(=O)Oc2ccc(N(CCCl)CCCl)cc2)cc(Nc2c3ccccc3nc3ccccc23)c1
class 0

Is the recorded value of pIC50 equal to or greater than 7 for this molecule? COc1ccc(Nc2c3ccccc3nc3ccccc23)cc1NC(=O)Nc1ccc(N(CCCl)CCCl)cc1
class 1

Is the recorded value of pIC50 equal to or greater than 7 for this molecule? Cc1ccc(NC(=O)Nc2ccc(N(CCCl)CCCl)cc2)cc1Nc1c2ccccc2nc2c(C)cccc12
class 1

---

Property: IC50; scope: individual compounds
System: CCRF-CEM/Taxol
test details: In vitro cytotoxicity, XTT assay, taxol-resistant subline
test settings: Homo sapiens, CCRF-CEM, 72 h, read-out: Cytotoxicity IC50, CCRF-CEM/Taxol

Before answering, review these 3 worked examples.
1. Cc1cccc2c(Nc3cc(CO)cc(NC(=O)Nc4ccc(N(CCCl)CCCl)cc4)c3)c3ccccc3nc12 [BO-1050]    390 nM
2. COc1ccc2nc(C)cc(NNC(=O)Nc3ccc(N(CCCl)CCCl)cc3)c2c1 [BO-1228]    1540 nM
3. O=C(NNc1cc(-c2ccccc2)nc2ccccc12)Nc1ccc(N(CCCl)CCCl)cc1 [BO-1393]    910 nM

Let me check: CC[C@]1(O)C[C@@H]2CN(CCc3c([nH]c4ccccc34)[C@@](C(=O)OC)(c3cc4c(cc3OC)N(C)[C@H]3[C@@](O)(C(=O)OC)[C@H](OC(C)=O)[C@]5(CC)C=CCN6CC[C@]43[C@@H]65)C2)C1 [Vinblastine, reference compound] , system CCRF-CEM/Taxol, measured IC50 is 80 nM

Let me check: Cc1cc(NNC(=O)Nc2ccc(N(CCCl)CCCl)cc2)c2cc(N(C)C)ccc2n1 [BO-1242] , system CCRF-CEM/Taxol, measured IC50 is 4190 nM

Let me check: O=C(Nc1ccc(N(CCCl)CCCl)cc1)Nc1cc(CO)cc(Nc2c3ccccc3nc3ccccc23)c1 [BO-1037] , system CCRF-CEM/Taxol, measured IC50 is 17100 nM

Let me check: Cc1ccc(Nc2c3ccccc3nc3c(C)cccc23)cc1NC(=O)Nc1ccc(N(CCCl)CCCl)cc1 [BO-1051] , system CCRF-CEM/Taxol, measured IC50 is 90 nM

---

Property: pIC50; scope: individual compounds
Tested on: CCRF-CEM/Taxol
test details: In vitro cytotoxicity, XTT assay, taxol-resistant subline
test settings: Homo sapiens, CCRF-CEM, 72 h, read-out: Cytotoxicity IC50, CCRF-CEM/Taxol
A value of pIC50 is the negative decimal logarithm of a concentration given in moles per litre.

1) Cc1cc(NC(=O)Nc2ccc(N(CCCl)CCCl)cc2)c2cc(N(C)C)ccc2n1    6.51
2) Cc1cccc2c(Nc3cc(CO)cc(NC(=O)Oc4ccc(N(CCCl)CCCl)cc4)c3)c3ccccc3nc12    7.00
3) Cc1cc(NC(=O)Nc2ccc(N(CCCl)CCCl)cc2)c2ccccc2n1    6.37

Lab book: pIC50 of Cc1cc(NC(=O)Nc2ccc(N(CCCl)CCCl)cc2)cc(Nc2c3ccccc3nc3ccccc23)c1 noted as 6.42

Lab book: pIC50 of COc1ccc(Nc2c3ccccc3nc3ccccc23)cc1NC(=O)Oc1ccc(N(CCCl)CCCl)cc1 noted as 6.80

Lab book: pIC50 of COc1cc(NC(=O)Oc2ccc(N(CCCl)CCCl)cc2)cc(Nc2c3ccccc3nc3ccccc23)c1 noted as 6.51

Ref: patent US9193687B2
